Data origin: patent US20220033501A1

# Tested System: T1, murine TIM-3 extracellular domain protein with hFc tag (mTIM-3-hFc) (mouse, UniProt Q8VIM0 29-191)
# T1 construct: also called mouse TIM-3 extracellular domain protein; not shown: human IgG Fc fragment (hFc) of the pCpC vector
# T1 chain: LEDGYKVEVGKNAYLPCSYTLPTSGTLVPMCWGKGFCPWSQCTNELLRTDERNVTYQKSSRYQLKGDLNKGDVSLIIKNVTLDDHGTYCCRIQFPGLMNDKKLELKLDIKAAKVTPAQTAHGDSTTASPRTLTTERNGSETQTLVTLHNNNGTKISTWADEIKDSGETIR
# Test Protocol: ELISA, coated mouse TIM-3 ECD protein, 0.0667 nM antibody
Property Measured: OD450
// response body must contain only the number

- Binder: "7A4F10 fully human TIM-3 antibody (human IgG4, kappa) (antibody, V domains shown) VH: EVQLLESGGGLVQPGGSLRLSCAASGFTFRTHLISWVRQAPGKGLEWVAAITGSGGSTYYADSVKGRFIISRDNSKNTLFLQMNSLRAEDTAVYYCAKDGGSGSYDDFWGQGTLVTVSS VL: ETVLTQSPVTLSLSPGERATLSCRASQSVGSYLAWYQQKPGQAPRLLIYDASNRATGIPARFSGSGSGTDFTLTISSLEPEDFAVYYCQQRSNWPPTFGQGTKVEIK"
  OD450: 0.22
- Binder: "57F4E5 fully human TIM-3 antibody (human IgG4, kappa) (antibody, V domains shown) VH: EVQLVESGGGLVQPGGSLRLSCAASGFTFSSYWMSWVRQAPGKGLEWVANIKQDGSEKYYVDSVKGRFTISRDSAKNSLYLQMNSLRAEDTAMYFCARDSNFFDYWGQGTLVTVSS VL: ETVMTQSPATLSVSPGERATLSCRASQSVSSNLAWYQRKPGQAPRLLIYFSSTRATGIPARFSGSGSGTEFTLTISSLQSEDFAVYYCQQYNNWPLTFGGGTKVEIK"
  OD450: 0.33

// moving on: another record for OD450
Prompt line: Given 34B6D8 fully human TIM-3 antibody (human IgG4, kappa) (antibody, V domains shown) VH: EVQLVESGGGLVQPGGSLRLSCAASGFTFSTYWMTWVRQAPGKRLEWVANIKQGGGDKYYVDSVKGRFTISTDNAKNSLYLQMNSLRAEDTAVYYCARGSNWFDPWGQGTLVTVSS VL: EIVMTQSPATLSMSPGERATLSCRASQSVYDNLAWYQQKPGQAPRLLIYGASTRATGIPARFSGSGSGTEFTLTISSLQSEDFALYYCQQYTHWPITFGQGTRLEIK , state its recorded OD450.
Response line: 0.25
